Reference source for all entries: patent EP0908457B1

Tested on: Cyperus iria
PROTOCOL_DESCRIPTION: Postemergence weed control under flooded paddy conditions, CYPIR (Rice Flatsedge)
Type: in vivo
EXPERIMENTAL_CONDITIONS: Rate 0.1250 kg/ha, rated three to four weeks after treatment
MEASUREMENT_TYPE: herbicidal effect rating, CYPIR
Field format: numeric only.

COc1cc(C)ccc1-c1nsc2ccc(-n3c(=O)cc(C(F)(F)F)n(C)c3=O)cc12: 9.0
CC(C)Oc1cccc(-c2nsc3ccc(-n4c(=O)cc(C(F)(F)F)n(C)c4=O)cc23)c1: 9.0
CCC(C#N)(CC)c1nsc2ccc(-n3c(=O)cc(C(F)(F)F)n(C)c3=O)cc12: 9.0

Note: attention shifts to another entry.
Query block: Specify measured herbicidal effect rating, CYPIR for COc1ccc(OC)c(-c2nsc3ccc(-n4c(=O)cc(C(F)(F)F)n(C)c4=O)cc23)c1 .
Result block: 9.0

---

Overview of reported herbicidal effect rating, CYPSE across a group of compounds:
Tested on: Cyperus serotinus, Rottb.
PROTOCOL_DESCRIPTION: Preemergence weed control under flooded paddy conditions, CYPSE (Flatsedge); further: meaning of each grade not given here
Type: in vivo
EXPERIMENTAL_CONDITIONS: Rate 0.1250 kg/ha, preemergence weeds, rated three to four weeks after treatment
Field format: numeric only.

A selection of reference data follows.
C[C@@H](Br)[C@H](Br)c1nsc2ccc(-n3c(=O)cc(C(F)(F)F)n(C)c3=O)cc12: 5.0
Cn1c(C(F)(F)F)cc(=O)n(-c2ccc3snc(CN=C=S)c3c2)c1=O: 0.0
CCOc1cccc(-c2nsc3ccc(-n4c(=O)cc(C(F)(F)F)n(C)c4=O)cc23)c1: 5.5
Cn1c(C(F)(F)F)cc(=O)n(-c2ccc3snc(C(N)=O)c3c2)c1=O: 6.0
Cc1ccc(OCC(=O)NO)c(-c2nsc3ccc(-n4c(=O)cc(C(F)(F)F)n(C)c4=O)cc23)c1: 0.0

Query block: Specify measured herbicidal effect rating, CYPSE for Cn1c(C(F)(F)F)cc(=O)n(-c2ccc3snc(C(=O)CBr)c3c2)c1=O .
Result block: 0.0

Query block: Specify measured herbicidal effect rating, CYPSE for COC(=O)COc1ccc(OC)cc1-c1nsc2ccc(-n3c(=O)cc(C(F)(F)F)n(C)c3=O)cc12 .
Result block: 4.0

Query block: Specify measured herbicidal effect rating, CYPSE for Cn1c(C(F)(F)F)cc(=O)n(-c2ccc3snc(C(=O)NS(C)(=O)=O)c3c2)c1=O .
Result block: 6.5

---

Tested on: Cyperus serotinus, Rottb.
PROTOCOL_DESCRIPTION: Preemergence weed control under flooded paddy conditions, CYPSE (Flatsedge); further: meaning of each grade not given here
Format: in vivo
EXPERIMENTAL_CONDITIONS: Rate 0.2500 kg/ha, preemergence, rated three to four weeks after treatment
MEASUREMENT_TYPE: herbicidal effect rating, CYPSE
Field format: numeric only.

A selection of reference data follows.
COc1ccc(COC(=O)C(C)(C)c2nsc3ccc(-n4c(=O)cc(C(F)(F)F)n(C)c4=O)cc23)cc1: 0.0
Cn1c(C(F)(F)F)cc(=O)n(-c2ccc3snc(C(C#N)(Cc4ccccc4)Cc4ccccc4)c3c2)c1=O: 7.0

Query block: Specify measured herbicidal effect rating, CYPSE for Cc1ccc(OC(C)(C)C(=O)NS(C)(=O)=O)c(-c2nsc3ccc(-n4c(=O)cc(C(F)(F)F)n(C)c4=O)cc23)c1 .
Result block: 4.0
